system: K4 kissing-loop RNA reporter; experiment: apparent KD of K4 kissing-loop reporter; higher = weaker reporter binding; settings: Eterna round: R107; input ligand: arginine 13.2 mM;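 further: bound reporter read as fluorescence of individual clusters on recovered sequencing chips by microscopy, with normalized cluster intensities fitted with a binding model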
RECORDED ENDPOINT: apparent KD of K4 kissing-loop reporter (nM)
The response must be a number in nM with no trailing unit.

SEQUENCE CHAIN	READOUT NUMBER
UGCGCUAUGUCCUAAAACGUCCUCCGGGAUACCAGAGUCUUUUUAUUCCCUUGGCAGCUUGAGUGAUGUUUGAUGCCGUUCUUGU [srrevmullin]	215
AAAUAGAUCAGUCACCCAGUGAUGUUGGAAGGAGCGUGCGAAAGCACAGGUAGGUCGCCAGAAUAAAAGUGGCUGAUCAAAAUAA	358
GCAACAUUGGCAGGAUAUCCUUCUCAGUGAUGUUGAGGGUUCAGCUAACGAAAGUUAGUUGUACCAGGAGAAGGGCUAAUGUUGC [Omei KL FMN B SS A v7]	815
AAGUUGAACUGAAGGAGCGAGAAAUAGAAUGUAAGAAUAUAUGCUAGUGAUGUUAGAAAUUCUCAGGUAGGUCGCAGUAAGAAUU [V1]	357
CUGCCUCACUCGGCCGCCACUGUAUAAAUGUGACAGUGAUGUUGUCGUCGGAAAGGGCACUUAGGCAGGACCGGGAGUUUCAGGC [theeternabot_exclusion_KL_Trp_B_20]	409

Consider UGUGUUGUUUUGAUGUUUGGUGUUUGUUGGCAGGAUAUCGUAGAGGCGAGAAGGGCUUGGGAGCGGUAUGAGUGAUGUUUGUAGG [deedwrmullin] . Its measured apparent KD of K4 kissing-loop reporter is 186

Consider UGUGUUGUUUUGAUGUUUGGUGUUGCAUGGCAGGAUAUCGUAGAGGCGAGAAGGGCUUGUGAGCGGUAUGAGUGAUGUUUGUAGG [bbgbmullin] . Its measured apparent KD of K4 kissing-loop reporter is 270

Consider AAGCAGUCACUCGAAGCCAUCGAAGAUGGGCGAGGACCGGUACGGCCGCCACUCGGAGUGAUGUUCCGAGGACUGCAAAAUAAAA [MatMod 4 - Jieux - Exclusion - Tryptophan A] . Its measured apparent KD of K4 kissing-loop reporter is 365

----------
# key: entry, value: apparent KD of MS2 coat protein
test system: MS2 coat protein; test: apparent KD of MS2 coat protein, switch ON state; designed switch direction (-1 OFF switch, 1 ON switch): 1; higher = weaker reporter binding; details: FMN input: 0 or 200 uM; Eterna round: R93 (includes R88 designs)

Worked set:
SEQUENCE CHAIN	apparent KD of MS2 coat protein
AGGAAACAUGAGGAUCACCCAUGUAAAAGGUGGGUAGGAUAUGCGAAAAGAAAAAGAAAAGCAGAAGGACCAAGAA [62%, Something completely different, 1]	38.7 nM
UCCUUACAUGAGGAUCACCCAUGUCGCAGGAAUCAAGGAUAUGGGUCCGCAAUGCGGAAACCAGAAGGUGACAAAA [Edusquanon]	165 nM
AUAAAAGAAGCGAAGGAUAUCCAAAACUCAACAUGAGGAUCACCCAUGUAAAGAAAGAAAAAAUGGGAGAAGGUCGCAAAGAAUA [73%, More Fisker Same State 2, D3, 10]	11.8 nM
AAGAAAGUUUACGAGGAUAUGUUCCGCAGAACAUGAGGAUCACCCAUGUGAACAAGAAAGGCGACGCAGAAGGCGUGAGCUAUGA [Anesdien]	32.7 nM
AUAAAAUAAAAGGAGGAUAUCCAUAAUAAAACAUGAGGAUCACCCAUGUAAAAAAGAAGAAAAUGGGAGAAGGCCUAAAAUAAAU [SS2 M 27]	11.4 nM

Alright, here's another sequence for you.
Consider AUAAAACAUGAGGAUCACCCAUGUAAAAAAGCAUGAGGAUAUAUAAAAAGAAAAAGAAGAAUAGAAGGCAUAAUAA [JR_SS001_Sub1223] . Its measured apparent KD of MS2 coat protein is 60.7 nM

----------
tested on: MS2 coat protein; assay: apparent KD of MS2 coat protein, switch OFF state (with FMN for OFF switches, without FMN for ON switches); designed switch direction (-1 OFF switch, 1 ON switch): 1; higher = weaker reporter binding; conditions: FMN input: 0 or 200 uM; Eterna round: R93 (includes R88 designs)
# key: entry, value: apparent KD of MS2 coat protein

Worked set:
> print(dat)
                             sequence.chain   result
1  AAUCCAAAUAGUUAGGAUAUGGGAAUUAAAACAUGAGGAUCACCCAUGUAAUUGAAACAAGUUAACCAGAAGGGACAGGGUGAAA [JR_SS002_Sub209]  46.1 nM
2  AGGAAACAUGAGGAUCACCCAUGUAAAAAUAUGGGAGGAUAUACAAACAGGAAAGAGAGAGUAGAAGGCCUAAAAG [Garnet 20]  41.8 nM
3  GAAAAACAUGAGGAUCACCCAUGUAGAAAUAUGGGAGGAUAUACAAAGACGAAAGUCAAAGUAGAAGGCCUUAAAG [JL S1 M-MoE mod 1 In the Red]  54.9 nM

Consider AAUAUACAUGAGGAUCACCCAUGUUAGGUGGGACUAGGAUAUCAAAAUAAAUAAAGAACAUGAGAAGGAGUAUCAA [JR_SS001_Sub401] . Its measured apparent KD of MS2 coat protein is 152 nM

Consider GGGAAGAAGAGAGAGGAUAUCCAAAGGAAAACAUGAGGAUCACCCAUGUAAAAGGUAGGAAAUUGGGAGAAGGCUCAAAAGAGGG [salish99-ss2-032] . Its measured apparent KD of MS2 coat protein is 39.4 nM

Consider GGAAAACAUGAGGAUCACCCAUGUGAAAACGUGGGAGGAUAUCGAUGGAAACCAUACUGUCGAGAAGGCCCAUGUC [EteRNA is fun!] . Its measured apparent KD of MS2 coat protein is 47.2 nM

----------
tested on: MS2 coat protein; test: apparent KD of MS2 coat protein; designed switch direction (-1 OFF switch, 1 ON switch): -1; higher = weaker reporter binding; settings: Eterna round: R95; input ligand: none
RECORDED ENDPOINT: apparent KD of MS2 coat protein (nM)
The response must be a number in nM with no trailing unit.

Worked set:
SEQUENCE CHAIN	MEASUREMENT UNIT	apparent KD of MS2 coat protein
AAGUACCGUCACGAUAGUGAUGGUACAACAGGCAAAUGUACAUGAGGAUCACCCAUGUCCUCUUUUGCUCGUCUUGU [Sensor 3 - 35] (puzzle: Sensor v3, turn-off variant 2)	nM	114
CCGGAAAUAGAGGAUAUAGGACUCGAUAGAGUCCUAGAAGGCUAUACAUGAGGAUCACCCAUGUGUCCUACCGG [Fiskers Ex 6 - 64] (puzzle: Exclusion 6)	nM	13.4
UUUUUCGAACAAGCUUCGUACAUGAGGAUCACCCAUGUUGGUAGAUUUGAGUAGGUUUGGAUGUAAGCUCGUCUUAU [JR_SV3TOV1_Sub082] (puzzle: Sensor v3, turn-off variant 1)	nM	129
UCGUUGUAAAUCAGGUGAUGUCUGUUAGGAUGGACUUUGACAUGAGGAUCACCCAUGUUGCUUUUUGCCCGUCUUAA [JR_SV3TOV2_Sub045] (puzzle: Sensor v3, turn-off variant 2)	nM	38.4

Consider UUUAAUUUUUUUUUUUUACAAGCUUUUUGCUCGUCUUAUACAUGAGGAUCACCCAUGUGGGUAGAAAAUAAAUUAUC [JMF 91] (puzzle: Sensor v3, turn-off variant 2) . Its measured apparent KD of MS2 coat protein is 48.7

----------
tested on: MS2 coat protein; test: apparent KD of MS2 coat protein; designed switch direction (-1 OFF switch, 1 ON switch): 1; higher = weaker reporter binding; conditions: Eterna round: R98; input ligand: none
RECORDED ENDPOINT: apparent KD of MS2 coat protein (nM)
The response must be a number in nM with no trailing unit.

Observed apparent KD of MS2 coat protein on MS2 coat protein, entry CACGUCCUCACAGGAUAUGCUGGACUUUGUCCAGCAGAAGGGUGACAUGAGGAUCACCCAUGUUAAAGGACGUGUAUAUUUAAU [Denovo 24] , equals 652

Observed apparent KD of MS2 coat protein on MS2 coat protein, entry AUGGGUUAAGGAGGAUAUAGAGGGAGGAGUAAACAUGAGGAUCACCCAUGUAUUUAAUUAGUUUACUAGAAGGCUUGUGAUUGU [1.8082e+07] , equals 33.9

Observed apparent KD of MS2 coat protein on MS2 coat protein, entry AGGUAGGUCACAGGAUAUCCCGUGAGCUACAUGAGGAUCACCCAUGUAUCACGACGAAAGAAGAAGGAGAAGGGUGACCCUGAU [Atqula] , equals 186

Observed apparent KD of MS2 coat protein on MS2 coat protein, entry CGGAAUUGUACAGGAUAUGAGGGUGCCUGAGCCUCAGAAGGGUAGACCGACAUGAGGAUCACCCAUGUAUGCGGAUAACGUCCG [Sobela] , equals 224

Observed apparent KD of MS2 coat protein on MS2 coat protein, entry ACCAAUGGGUGAGGAUAUGCACAGGAUCACCGUGUAGAAGGCAUCAGGUAGAAGGUGCAGAGGAUCACCCUGUAAGGAUAUAUC [pwkr2 ssNG1 DX.14] , equals 563

Observed apparent KD of MS2 coat protein on MS2 coat protein, entry UCCGCUAUCGCAGGAUAUUACAUGGGAAAGAGUACAUGAGGAUCACCCAUGUAAAAGAUCAUAAAUAAGAAGGGCGAUAGCGGA [Lame State 9 - Jieux - Same State NG 2] , equals 18.8

Observed apparent KD of MS2 coat protein on MS2 coat protein, entry GGAGACCACACAGGAUAUGCUGGACUUUGUCCAGCAGAAGGGUGUUUAACAUGAGGAUCACCCAUGUAGGUCUCCAAAUUUAAU [Denovo 59] , equals 60.5

Observed apparent KD of MS2 coat protein on MS2 coat protein, entry CACUCCCGGUGAGGAUAUGCACAGGAUCACCGUGUAGAAGGCAUCAGGUAGAAGGUGCAGAGGAUCACCCUGUAAGGAUAUAUC [pwkr2 ssNG1 DX.12] , equals 300

Observed apparent KD of MS2 coat protein on MS2 coat protein, entry CAGGCUGCCAGAGGAUAAUGGACAUGAGGAUCACCCAUGUGUCAGGAUAUGGGUUUCACAUGGACUCAGAAGGGACCAGCUCGA [Raraator] , equals 131

Observed apparent KD of MS2 coat protein on MS2 coat protein, entry AAUAAUCAGGUAGGAUAUGCUCAGGAUAACUGAGCAGAAGGACUAGAAACCUGAGGAUCACCCAGGUAACUGGAAUAAUAAUAA [Same State NG1 - A3C, U17G Submission 6B] , equals 121

Observed apparent KD of MS2 coat protein on MS2 coat protein, entry GGCUAACGGGCUAACAUGAGGAUCACCCAUGUGGACUCAUGGUAGGAUAUGCUGUACUUUGUACAGCAGAAGGGCCGGUGAGCC [Mat - Same State NG 3 - JL Mod - D9] , equals 726
